Molecular target: β-catenin E155A/BCL9 PPI (Homo sapiens (Human), UniProt P35222, E155A)
Sequence (P35222 138-686 E155A): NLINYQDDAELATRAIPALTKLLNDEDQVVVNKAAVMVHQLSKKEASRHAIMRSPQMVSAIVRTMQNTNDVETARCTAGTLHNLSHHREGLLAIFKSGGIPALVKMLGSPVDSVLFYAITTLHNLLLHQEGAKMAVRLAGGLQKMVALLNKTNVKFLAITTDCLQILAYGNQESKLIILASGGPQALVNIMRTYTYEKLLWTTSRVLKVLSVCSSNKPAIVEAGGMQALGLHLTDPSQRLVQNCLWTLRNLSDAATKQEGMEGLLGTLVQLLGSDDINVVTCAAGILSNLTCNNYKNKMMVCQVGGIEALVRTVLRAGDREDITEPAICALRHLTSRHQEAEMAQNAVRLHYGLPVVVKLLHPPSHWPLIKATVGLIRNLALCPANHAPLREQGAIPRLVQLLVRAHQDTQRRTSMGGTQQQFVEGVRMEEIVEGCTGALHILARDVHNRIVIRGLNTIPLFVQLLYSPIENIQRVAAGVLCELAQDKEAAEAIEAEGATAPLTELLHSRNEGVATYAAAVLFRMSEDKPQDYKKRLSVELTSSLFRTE
Assay: AlphaScreen competitive inhibition assay, β-catenin E155A mutant/BCL9 PPI
Details: β-catenin E155A/BCL9 PPI, AlphaScreen competitive inhibition; read-out: Ki ± SD
reported-property: pKi
Scale for pKi: -log10 of concentration given in mol/L; no unit attached.

Consider the molecule shown here: Cl.Cl.O=C(c1cc(F)cc(N2CCNCC2)c1)N1CCN(C(=O)c2ccc(O[C@H]3CCNC3)c(C3CCCCC3)c2)CC1 [Compound 10, hydrochloride] What is its recorded pKi?
4.41
